Examples of compounds with documented IC50 follow.
target.desc: adenosine A2A receptor (Homo sapiens (Human))
Sequence (P29274 whole entry): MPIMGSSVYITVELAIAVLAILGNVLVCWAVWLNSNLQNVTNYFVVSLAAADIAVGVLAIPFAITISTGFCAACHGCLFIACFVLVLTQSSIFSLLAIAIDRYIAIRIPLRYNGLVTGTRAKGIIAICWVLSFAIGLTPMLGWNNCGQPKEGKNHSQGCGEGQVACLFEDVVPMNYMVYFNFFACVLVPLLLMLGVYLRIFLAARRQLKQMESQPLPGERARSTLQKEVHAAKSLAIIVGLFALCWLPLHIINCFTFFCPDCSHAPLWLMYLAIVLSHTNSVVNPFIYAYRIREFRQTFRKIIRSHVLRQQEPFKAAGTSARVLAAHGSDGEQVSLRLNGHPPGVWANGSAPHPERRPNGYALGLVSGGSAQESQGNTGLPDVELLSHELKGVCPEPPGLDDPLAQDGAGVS
procedure.details: Adenosine receptor activity assay (Table 1), A2A activity
Type: biochemical
condition.summary: read-out: Ave A2A cAMP IC50

Before answering, review these 5 worked examples.
                                   compound  property_name       reported
0  Cc1cc2nc(N[C@@H](C)c3ccccn3)nc(C(=O)N3CC(CNC(=O)OC(C)(C)C)C3)c2s1           IC50  100 to 500 nM
1  C[C@H](Nc1nc(C(=O)NCCc2ccc(Cl)cc2)c2sccc2n1)c1cncc(F)c1           IC50       > 500 nM
2  Cc1cncc(CNc2nc(C(=O)N3CCCC3)c3sccc3n2)c1           IC50       > 500 nM
3  C[C@H](Nc1nc(C(=O)N[C@H]2CCNC2)c2sccc2n1)c1ccccn1           IC50       > 500 nM
4  CO[C@@H]1CCN(C(=O)c2nc(N[C@@H](C)c3ccccn3)nc3cc(C)sc23)C1           IC50    10 to 50 nM

Give IC50 (adenosine A2A receptor (Homo sapiens (Human))) of the following compound: C[C@H](Nc1nc(C(=O)NCCO)c2sccc2n1)c1cncc(F)c1 100 to 500 nM

Give IC50 (adenosine A2A receptor (Homo sapiens (Human))) of the following compound: CC(NC(=O)c1nc(NC(C)c2cccnc2)nc2ccsc12)c1cccnc1 (centres unmarked) > 500 nM

Give IC50 (adenosine A2A receptor (Homo sapiens (Human))) of the following compound: C[C@H](Nc1nc(C(=O)N2CCC2)c2sccc2n1)c1cncc(F)c1 50 to 100 nM

Give IC50 (adenosine A2A receptor (Homo sapiens (Human))) of the following compound: Cc1cc2nc(N[C@@H](C)c3cncc(F)c3)nc(C(=O)N3CC[C@H](N)C3)c2s1 > 500 nM

Give IC50 (adenosine A2A receptor (Homo sapiens (Human))) of the following compound: C[C@H](Nc1nc(C(=O)N2CC(CNC(=O)OC(C)(C)C)C2)c2sccc2n1)c1cncc(F)c1 10 to 50 nM

Give IC50 (adenosine A2A receptor (Homo sapiens (Human))) of the following compound: C[C@H](Nc1nc(C(=O)NC[C@@H](C)O)c2sc(C(F)(F)F)cc2n1)c1cncc(F)c1 > 500 nM

Give IC50 (adenosine A2A receptor (Homo sapiens (Human))) of the following compound: Cc1cc2nc(N[C@@H](C)c3ccccn3)nc(C(=O)N3CC(O)C3)c2s1 100 to 500 nM
